# measurement-target: T1, human Tie2ECD.flag (human, UniProt Q02763 23-748)
# T1 construct: also called hTie2.flag; not shown: C-terminal Flag tag
# T1 sequence (Q02763 23-748 limits assumed): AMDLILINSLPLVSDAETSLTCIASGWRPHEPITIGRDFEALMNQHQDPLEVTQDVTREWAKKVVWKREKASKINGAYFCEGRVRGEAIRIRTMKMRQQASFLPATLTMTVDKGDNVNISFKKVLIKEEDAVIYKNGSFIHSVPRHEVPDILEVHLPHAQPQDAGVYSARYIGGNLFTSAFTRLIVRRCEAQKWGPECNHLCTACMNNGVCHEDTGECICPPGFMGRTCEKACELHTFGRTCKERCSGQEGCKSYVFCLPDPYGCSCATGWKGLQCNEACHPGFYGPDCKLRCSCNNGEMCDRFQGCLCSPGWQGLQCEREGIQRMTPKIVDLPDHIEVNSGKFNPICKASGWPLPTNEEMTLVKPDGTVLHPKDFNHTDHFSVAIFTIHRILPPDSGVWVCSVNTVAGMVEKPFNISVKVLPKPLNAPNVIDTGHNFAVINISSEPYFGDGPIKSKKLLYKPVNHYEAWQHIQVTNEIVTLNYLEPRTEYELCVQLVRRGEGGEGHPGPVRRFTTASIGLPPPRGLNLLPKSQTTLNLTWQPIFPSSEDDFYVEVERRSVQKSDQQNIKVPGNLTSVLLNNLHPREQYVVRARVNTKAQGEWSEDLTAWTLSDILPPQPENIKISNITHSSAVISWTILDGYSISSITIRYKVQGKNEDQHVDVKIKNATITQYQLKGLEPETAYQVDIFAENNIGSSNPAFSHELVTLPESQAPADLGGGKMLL
# measurement-description: Biacore, hIgG captured, 25C

>  <binder>
Tie2.24 (antibody, IgG1, V domains shown, hIgG1 in later assays; also called Ab24) VH: EVQLVESGGGLVQPGGSLRLSCAASGFTFTSSGISWVRQAPGKGLEWVATINPYGGDTYYADSVKGRFTISADTSKNTAYLQMNSLRAEDTAVYYCARFYRFLSSGMDYWGQGTLVTVSS VL: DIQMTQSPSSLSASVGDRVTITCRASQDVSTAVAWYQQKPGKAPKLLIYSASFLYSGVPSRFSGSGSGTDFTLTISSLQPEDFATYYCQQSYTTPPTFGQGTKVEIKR

>  <unit-abbrev>
nM

>  <Kd>
822

$$$$

Source of measurements: patent US20210332142A1
